assay_target: Fatty-acid amide hydrolase 1 (Homo sapiens, UniProt O00519)
Sequence (O00519 whole entry): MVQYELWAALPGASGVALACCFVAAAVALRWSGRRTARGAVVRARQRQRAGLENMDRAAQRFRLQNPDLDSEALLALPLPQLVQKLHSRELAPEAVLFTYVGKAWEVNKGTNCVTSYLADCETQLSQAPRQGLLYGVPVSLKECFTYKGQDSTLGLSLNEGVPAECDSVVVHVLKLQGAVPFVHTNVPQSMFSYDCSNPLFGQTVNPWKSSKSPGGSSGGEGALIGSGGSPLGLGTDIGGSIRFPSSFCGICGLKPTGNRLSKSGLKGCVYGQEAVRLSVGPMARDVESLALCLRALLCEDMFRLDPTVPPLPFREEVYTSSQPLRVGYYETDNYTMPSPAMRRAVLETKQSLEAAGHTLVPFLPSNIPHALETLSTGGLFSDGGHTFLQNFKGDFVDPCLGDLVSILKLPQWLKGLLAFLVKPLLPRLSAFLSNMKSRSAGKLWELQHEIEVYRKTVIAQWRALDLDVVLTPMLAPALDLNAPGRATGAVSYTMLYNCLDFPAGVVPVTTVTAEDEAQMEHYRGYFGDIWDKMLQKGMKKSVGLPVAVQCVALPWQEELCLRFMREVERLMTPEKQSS
assay_explanation: Inhibition of FAAH in human U937 cells using AEA containing [ethanolamine-1-3H]AEA as substrate preincubated for 30 mins followed by substrate addition and measured after 15 mins by liquid scintillation spectroscopic method
observed_property: IC50

Use the examples below as a reference point.
INSERT INTO measurements (structure_smiles_string, meas_value) VALUES
  ('Cc1c(-c2ccccc2)cn(Cc2ccc(F)cc2)c(=O)c1C(=O)NC1CCCCCC1', '0.07 µM'),
  ('Cc1ccnc(OCc2ccc(F)cc2)c1C(=O)NC1CCCCCC1', '> 10 µM'),
  ('O=C(NC1CCCCCC1)c1c(-c2ccccc2)c(Br)cn(Cc2ccc(F)cc2)c1=O', '> 10 µM'),
  ('O=C(NC1CCCCCC1)c1c(-c2ccccc2)c(-c2ccccc2)cn(Cc2ccc(F)cc2)c1=O', '> 10 µM');

Measured on Fatty-acid amide hydrolase 1 (Homo sapiens, UniProt O00519), COc1ccc(-c2cn(Cc3ccc(F)cc3)c(=O)c(C(=O)NC3CCCCCC3)c2-c2ccccc2)cc1 has a documented IC50 of > 10 µM

====

Known EC50 of a selection of compounds
assay_target: Cannabinoid receptor 1 (Homo sapiens, UniProt P21554)
Sequence (P21554 whole entry): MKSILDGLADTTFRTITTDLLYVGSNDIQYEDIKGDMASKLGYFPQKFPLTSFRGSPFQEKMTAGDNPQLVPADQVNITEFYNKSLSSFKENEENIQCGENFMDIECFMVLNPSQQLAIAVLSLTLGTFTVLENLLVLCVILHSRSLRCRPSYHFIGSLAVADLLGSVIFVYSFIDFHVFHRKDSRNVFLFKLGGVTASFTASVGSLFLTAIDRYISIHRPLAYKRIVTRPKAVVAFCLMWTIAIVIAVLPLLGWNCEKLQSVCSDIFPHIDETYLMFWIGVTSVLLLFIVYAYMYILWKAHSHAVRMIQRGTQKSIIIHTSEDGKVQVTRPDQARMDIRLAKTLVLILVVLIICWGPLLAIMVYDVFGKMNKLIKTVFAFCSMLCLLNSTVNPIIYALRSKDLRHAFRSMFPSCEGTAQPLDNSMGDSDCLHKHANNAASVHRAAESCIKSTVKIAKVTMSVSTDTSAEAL
assay_explanation: Agonist activity at human CB1 receptor expressed in CHO cell membranes after 90 mins by [35S]GTPgammaS binding assay
Format: functional, cell-based
I only need the number, in nM, no unit after it.

Use the examples below as a reference point.
INSERT INTO results (structure_smiles_string, observed_property, meas_value) VALUES
  ('Cc1c(Br)cn(Cc2ccc(F)cc2)c(=O)c1C(=O)NC1CCCCCC1', 'EC50', 1.4),
  ('Cc1ccnc(OCc2ccc(F)cc2)c1C(=O)NC1CCCCCC1', 'EC50', 229),
  ('Cc1ccn(Cc2ccc(F)cc2)c(=O)c1C(=O)NC1CCCCCC1', 'EC50', 69),
  ('COc1ccc(-c2cn(Cc3ccc(F)cc3)c(=O)c(C(=O)NC3CCCCCC3)c2C)cc1', 'EC50', 96),
  ('Cc1c(-c2ccccc2)cn(Cc2ccc(F)cc2)c(=O)c1C(=O)NC1CCCCCC1', 'EC50', 237);

Measured EC50 of Cc1c(Br)cnc(OCc2ccc(F)cc2)c1C(=O)NC1CCCCCC1 : 182

====

Organism: Homo sapiens
assay_explanation: Selectivity ratio of Ki for human CB1 receptor to Ki for human CB2 receptor
Known Ratio Ki of a selection of compounds

Use the examples below as a reference point.
INSERT INTO measurements (structure_smiles_string, meas_value) VALUES
  ('O=C(NC1CCCCCC1)c1c(-c2ccccc2)ccn(Cc2ccc(F)cc2)c1=O', '2 to 54'),
  ('O=C(NC1CCCCCC1)c1c(-c2ccccc2)c(-c2ccccc2)cn(Cc2ccc(F)cc2)c1=O', '2 to 54');

As a next step, examine the compound that follows.
Measured Ratio Ki of COc1ccc(-c2ccn(Cc3ccc(F)cc3)c(=O)c2C(=O)NC2CCCCCC2)cc1 : 2 to 54

====

assay_target: UniProt O00519
assay_explanation: Inhibition of FAAH in human U937 cells using AEA containing [ethanolamine-1-3H]AEA as substrate preincubated for 30 mins followed by substrate addition and measured after 15 mins by liquid scintillation spectroscopic method
Known pIC50 of a selection of compounds
# pIC50 = -log10(concentration in molar units)

Measured on UniProt O00519, Cc1c(Br)cn(Cc2ccc(F)cc2)c(=O)c1C(=O)NC1CCCCCC1 has a documented pIC50 of 5.64

Measured on UniProt O00519, Cc1ccn(Cc2ccc(F)cc2)c(=O)c1C(=O)NC1CCCCCC1 has a documented pIC50 of 5.06

Measured on UniProt O00519, COc1ccc(-c2cn(Cc3ccc(F)cc3)c(=O)c(C(=O)NC3CCCCCC3)c2C)cc1 has a documented pIC50 of 5.89

====

assay_target: Monoacylglycerol lipase ABHD6 (Homo sapiens)
Sequence (Q9BV23 whole entry): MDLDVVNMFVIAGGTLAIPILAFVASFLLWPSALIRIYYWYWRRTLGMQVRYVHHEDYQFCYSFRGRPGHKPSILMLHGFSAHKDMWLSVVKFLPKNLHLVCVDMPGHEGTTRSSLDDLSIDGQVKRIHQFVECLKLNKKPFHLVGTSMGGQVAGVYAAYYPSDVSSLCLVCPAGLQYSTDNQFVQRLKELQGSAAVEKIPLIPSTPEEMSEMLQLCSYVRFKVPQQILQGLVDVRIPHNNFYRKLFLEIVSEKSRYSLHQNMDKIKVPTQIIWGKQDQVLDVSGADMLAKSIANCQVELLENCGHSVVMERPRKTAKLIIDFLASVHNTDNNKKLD
assay_explanation: Inhibition of human ABHD6 expressed in HEK293 cells using 2-OG as substrate preincubated for 30 mins followed by substrate addition and measured after 5 mins by liquid scintillation spectroscopic method
observed_property: IC50

Use the examples below as a reference point.
INSERT INTO results (structure_smiles_string, meas_value) VALUES
  ('Cc1ccn(Cc2ccc(F)cc2)c(=O)c1C(=O)NC1CCCCCC1', '> 10 µM'),
  ('Cc1c(Br)cn(Cc2ccc(F)cc2)c(=O)c1C(=O)NC1CCCCCC1', '> 10 µM'),
  ('Cc1c(Br)cnc(OCc2ccc(F)cc2)c1C(=O)NC1CCCCCC1', '0.53 µM'),
  ('O=C(NC1CCCCCC1)c1c(-c2ccccc2)ccn(Cc2ccc(F)cc2)c1=O', '> 10 µM');

Measured IC50 of COc1ccc(-c2c(Br)cn(Cc3ccc(F)cc3)c(=O)c2C(=O)NC2CCCCCC2)cc1 : > 10 µM

Measured IC50 of COc1ccc(-c2ccn(Cc3ccc(F)cc3)c(=O)c2C(=O)NC2CCCCCC2)cc1 : > 10 µM

Measured IC50 of O=C(NC1CCCCCC1)c1c(-c2ccccc2)c(-c2ccccc2)cn(Cc2ccc(F)cc2)c1=O : > 10 µM

Measured IC50 of COc1ccc(-c2cn(Cc3ccc(F)cc3)c(=O)c(C(=O)NC3CCCCCC3)c2-c2ccccc2)cc1 : > 10 µM

Measured IC50 of Cc1c(-c2ccccc2)cn(Cc2ccc(F)cc2)c(=O)c1C(=O)NC1CCCCCC1 : > 10 µM

Measured IC50 of O=C(NC1CCCCCC1)c1c(-c2ccccc2)c(Br)cn(Cc2ccc(F)cc2)c1=O : 3 µM

Measured IC50 of COc1ccc(-c2cn(Cc3ccc(F)cc3)c(=O)c(C(=O)NC3CCCCCC3)c2C)cc1 : > 10 µM

Measured IC50 of Cc1ccnc(OCc2ccc(F)cc2)c1C(=O)NC1CCCCCC1 : > 10 µM

====

The compounds below have reported log10(Ki) for Cannabinoid receptor 2 (Homo sapiens).
Values below are the log10 of the recorded Ki, with nM as the unit.

INSERT INTO measurements (structure_smiles_string, observed_property, meas_value) VALUES
  ('O=C(NC1CCCCCC1)c1c(-c2ccccc2)c(Br)cn(Cc2ccc(F)cc2)c1=O', 'log10(Ki)', 2.64),
  ('Cc1c(Br)cn(Cc2ccc(F)cc2)c(=O)c1C(=O)NC1CCCCCC1', 'log10(Ki)', 0.54),
  ('Cc1ccn(Cc2ccc(F)cc2)c(=O)c1C(=O)NC1CCCCCC1', 'log10(Ki)', 0.77),
  ('O=C(NC1CCCCCC1)c1c(-c2ccccc2)ccn(Cc2ccc(F)cc2)c1=O', 'log10(Ki)', 2.27),
  ('Cc1c(-c2ccccc2)cn(Cc2ccc(F)cc2)c(=O)c1C(=O)NC1CCCCCC1', 'log10(Ki)', 0.84);

As a next step, examine the compound that follows.
Measured on Cannabinoid receptor 2 (Homo sapiens), Cc1ccnc(OCc2ccc(F)cc2)c1C(=O)NC1CCCCCC1 has a documented log10(Ki) of 1.67

====

assay_target: Lysophosphatidylserine lipase ABHD12 (Homo sapiens, UniProt Q8N2K0)
Sequence (Q8N2K0 whole entry): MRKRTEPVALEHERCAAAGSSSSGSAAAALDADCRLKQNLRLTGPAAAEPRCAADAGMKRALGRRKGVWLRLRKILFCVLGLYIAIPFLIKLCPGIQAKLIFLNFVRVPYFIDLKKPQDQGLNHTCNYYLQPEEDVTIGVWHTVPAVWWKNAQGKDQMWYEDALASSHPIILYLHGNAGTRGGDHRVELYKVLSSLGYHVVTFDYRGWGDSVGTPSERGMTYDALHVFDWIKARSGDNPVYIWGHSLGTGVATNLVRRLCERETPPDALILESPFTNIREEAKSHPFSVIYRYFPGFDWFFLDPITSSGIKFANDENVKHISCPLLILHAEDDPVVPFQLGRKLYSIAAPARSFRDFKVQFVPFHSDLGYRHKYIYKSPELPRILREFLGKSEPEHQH
assay_explanation: Inhibition of human ABHD12 expressed in HEK293 cells using 2-OG as substrate preincubated for 30 mins followed by substrate addition and measured after 5 mins by liquid scintillation spectroscopic method
observed_property: IC50

INSERT INTO measurements (structure_smiles_string, meas_value) VALUES
  ('COc1ccc(-c2ccn(Cc3ccc(F)cc3)c(=O)c2C(=O)NC2CCCCCC2)cc1', '> 10 µM'),
  ('Cc1c(Br)cnc(OCc2ccc(F)cc2)c1C(=O)NC1CCCCCC1', '> 10 µM'),
  ('COc1ccc(-c2c(Br)cn(Cc3ccc(F)cc3)c(=O)c2C(=O)NC2CCCCCC2)cc1', '> 10 µM'),
  ('O=C(NC1CCCCCC1)c1c(-c2ccccc2)ccn(Cc2ccc(F)cc2)c1=O', '> 10 µM'),
  ('COc1ccc(-c2cn(Cc3ccc(F)cc3)c(=O)c(C(=O)NC3CCCCCC3)c2-c2ccccc2)cc1', '> 10 µM'),
  ('Cc1ccn(Cc2ccc(F)cc2)c(=O)c1C(=O)NC1CCCCCC1', '> 10 µM');

Measured IC50 of Cc1c(Br)cn(Cc2ccc(F)cc2)c(=O)c1C(=O)NC1CCCCCC1 : 2.1 µM

Measured IC50 of COc1ccc(-c2cn(Cc3ccc(F)cc3)c(=O)c(C(=O)NC3CCCCCC3)c2C)cc1 : > 10 µM

Measured IC50 of Cc1c(-c2ccccc2)cn(Cc2ccc(F)cc2)c(=O)c1C(=O)NC1CCCCCC1 : 2.5 µM
